system: BGC-823; assay: Antiproliferative activity against human BGC823 cells assessed as cell viability at 40 uM after 48 hrs by MTT assay relative to control; type: functional; settings: BGC-823, 48 h, read-out: Activity
property.name: viability at 40 µM (%)

>>> numeric_result("C=C(CCCC(C)(C)O)[C@H]1CC[C@]2(C)[C@@H]1[C@H](O)C[C@@H]1[C@@]3(C)CC[C@H](OS(N)(=O)=O)C(C)(C)[C@@H]3CC[C@]12C")
24.7
>>> numeric_result("CC(C)=CCC[C@@](C)(O)[C@H]1CC[C@]2(C)[C@@H]1[C@H](OS(N)(=O)=O)C[C@@H]1[C@@]3(C)CC[C@H](O)C(C)(C)[C@@H]3CC[C@]12C")
19.9
>>> numeric_result("CC(C)=CCC[C@@](C)(O)[C@H]1CC[C@]2(C)[C@@H]1[C@H](O)C[C@@H]1[C@@]3(C)CC[C@H](OS(N)(=O)=O)C(C)(C)[C@@H]3CC[C@]12C")
17.1

* * *

system: BGC-823; assay: Antiproliferative activity against human BGC823 cells assessed as cell viability at 40 uM after 48 hrs by MTT assay relative to control; type: functional; details: BGC-823, 48 h, read-out: Activity
property.name: viability at 40 µM

>>> result("C=C(CCC=C(C)C)[C@H]1CC[C@]2(C)[C@@H]1[C@H](OS(N)(=O)=O)C[C@@H]1[C@@]3(C)CC[C@H](O)C(C)(C)[C@@H]3CC[C@]12C")
"21.2%"
>>> result("C=C(CCCC(C)(C)OS(N)(=O)=O)[C@H]1CC[C@]2(C)[C@@H]1[C@H](O)C[C@@H]1[C@@]3(C)CC[C@H](O)C(C)(C)[C@@H]3CC[C@]12C")
"39.9%"
>>> result("CC(C)(O)CCC[C@@](C)(O)[C@H]1CC[C@]2(C)[C@@H]1[C@H](O)C[C@@H]1[C@@]3(C)CC[C@H](O)C(C)(C)[C@@H]3CC[C@]12C")
"40.1%"
>>> result("CC(C)(O)CCC[C@@](C)(O)[C@H]1CC[C@]2(C)[C@@H]1[C@H](O)C[C@@H]1[C@@]3(C)CC[C@H](OS(N)(=O)=O)C(C)(C)[C@@H]3CC[C@]12C")
"40%"
>>> result("CC(C)(O)CCC[C@@](C)(OS(N)(=O)=O)[C@H]1CC[C@]2(C)[C@@H]1[C@H](O)C[C@@H]1[C@@]3(C)CC[C@H](OS(N)(=O)=O)C(C)(C)[C@@H]3CC[C@]12C")
"14.5%"

* * *

In this section, each of the compounds is paired with its reported IC50.
system: HCT-116; experiment: Antiproliferative activity against human HCT116 cells after 48 hrs by MTT assay; format: functional, cell-based; settings: Homo sapiens, HCT-116, 48 h; read-out: IC50
property.name: IC50

>>> result("C=C(CCCC(C)(C)O)[C@H]1CC[C@]2(C)[C@@H]1[C@H](O)C[C@@H]1[C@@]3(C)CC[C@H](O)C(C)(C)[C@@H]3CC[C@]12C")
"> 100 µM"
>>> result("C=C(CCCC(C)(C)O)[C@H]1CC[C@]2(C)[C@@H]1[C@H](OS(N)(=O)=O)C[C@@H]1[C@@]3(C)CC[C@H](OS(N)(=O)=O)C(C)(C)[C@@H]3CC[C@]12C")
"> 100 µM"
>>> result("CC(C)(O)CCC[C@@](C)(O)[C@H]1CC[C@]2(C)[C@@H]1[C@H](OC(=O)CCC(=O)O)C[C@@H]1[C@@]3(C)CC[C@H](OC(=O)CCC(=O)O)C(C)(C)[C@@H]3CC[C@]12C")
"> 100 µM"
